B1: FBXO3 (parent)
chain: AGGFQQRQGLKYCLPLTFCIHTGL

Variants of: B1
method_description: protein stability index of a GFP-peptide fusion (GPS, HEK-293T) (PSI 1-6); higher = more stable;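 also: lentivirally expressed fusions sorted by FACS into six bins by GFP to DsRed ratio, PSI derived from sequencing read proportions per bin multiplied by bin number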
assay_setup: c terminus: a fixed tail appended
What protein stability index was measured for each of the following?
Numbers only.

variant_annotation | protein stability index
Q5A | 3.05
C19I | 1.6
L24S | 2.14
G3D | 3.1
P15I | 3.05
L14N | 2.34
F4H | 2.54
Q6C | 2.8
G2P | 2.79
L14K | 2.73

Record protein stability index per entry; entries follow.
1. Y12M
2. F4C

Reply:
1: 2.59; 2: 2.66
